relative binding ratio (IC50 of standard peptide / IC50 of test peptide) for assorted binders
Target: HLA-A*2401 (purified HLA class I molecule) (human)
Kindly provide the number alone.

Binder	Reported Value
FFWLDRSVL [PAP (prostatic acid phosphatase) peptide, position 23, 9 amino acids]	0.0017
EYIRKRYRKF [PAP (prostatic acid phosphatase) peptide, position 83, 10 amino acids]	0.0067
GFLFLLFFW [PAP (prostatic acid phosphatase) peptide, position 17, 9 amino acids]	0.0016

Recorded relative binding ratio (IC50 of standard peptide / IC50 of test peptide) of GFLFLLFFWL [PAP (prostatic acid phosphatase) peptide, position 17, 10 amino acids] , please.
0.0007
